Measured IC50 (Ustilago maydis acetyl CoA carboxylase (ACCase) (Ustilago maydis, UniProt A0A0D1DYD5))
Output spec: scalar in µM, unitless text.

Give its IC50 value. Item: CCc1cccc2c(-c3ccccc3)cc(-c3ccc(OCC(N)=O)cc3)nc12
8.15

Give its IC50 value. Item: CCc1cccc2c(-c3ccccc3)cc(-c3ccc(CC(N)=O)s3)nc12
9.58

Give its IC50 value. Item: COc1ccc2c(-c3ccccc3)cc(SC(C)C(N)=O)nc2c1 (stereo not shown)
8.8

Give its IC50 value. Item: NC(=O)Cc1ccc(-c2cc(-c3ccccc3)c3ccccc3n2)s1
8.18

====

Observation type: pIC50
As a rule, pIC50 stands for the negative log10 of the concentration, concentration in M.

I'm curious: which pIC50 was measured for COc1ccc(-c2cc(-c3ccccc3)c3ccccc3n2)cc1OC tested on Ustilago maydis acetyl CoA carboxylase (ACCase) (Ustilago maydis)?
5.11

I'm curious: which pIC50 was measured for COc1cccc2c(-c3ccccc3)cc(-c3ccc(CC(N)=O)s3)nc12 tested on Ustilago maydis acetyl CoA carboxylase (ACCase) (Ustilago maydis)?
5.38

I'm curious: which pIC50 was measured for CO[C@H]1CCCC[C@@H](c2ccccc2)OC(=O)[C@@H](C)[C@@]2(O)O[C@H]([C@@H](C)[C@H](O)[C@H]2OC)[C@@H](C)/C=C/[C@H]1OC [Soraphen, reference compound] tested on Ustilago maydis acetyl CoA carboxylase (ACCase) (Ustilago maydis)?
7.34

I'm curious: which pIC50 was measured for COC(=O)Cc1ccc(-c2cc(-c3ccccc3)c3ccccc3n2)s1 tested on Ustilago maydis acetyl CoA carboxylase (ACCase) (Ustilago maydis)?
4.92

I'm curious: which pIC50 was measured for COc1cccc2c(-c3ccccc3)cc(-c3ccc(OCC(N)=O)cc3)nc12 tested on Ustilago maydis acetyl CoA carboxylase (ACCase) (Ustilago maydis)?
6.26
